Where these numbers come from: patent US6100279A

Here's a batch of molecules along with measured Ki for H3 receptor (Cavia porcellus).
Express the result in nM but write the number alone.

Molecule	Unit abbreviation	Ki
O=C(Nc1cc(Cl)cc(Cl)c1)N1CCC(Cc2cnc[nH]2)CC1	nM	220

Enter reported Ki observed with H3 receptor (Cavia porcellus) for Clc1ccc(OCCCN2CCC(Cc3cnc[nH]3)CC2)cc1
9

Kindly state the measured Ki obtained for O=S(=O)(c1ccc(OC(F)(F)F)cc1)N1CCC(CCc2cnc[nH]2)C1 (centres unmarked) with H3 receptor (Cavia porcellus).
58

What value of Ki on H3 receptor (Cavia porcellus) does O=C(CCOc1ccc(Cl)cc1)N1CCC(Cc2cnc[nH]2)CC1 have?
9

Form entry - test system: H3 receptor (Cavia porcellus); read-out: Ki; molecule: O=C(CCN1CCC(Cc2c[nH]cn2)CC1)Nc1cccc(F)c1
0.1

* * *

Test system: H3 receptor (Cavia porcellus, UniProt Q9JI35)
Construct: The source of the H3 receptors in this experiment was guinea pig brain; from tissue; host or cells: guinea pig brain membranes
Sequence (Q9JI35 whole entry): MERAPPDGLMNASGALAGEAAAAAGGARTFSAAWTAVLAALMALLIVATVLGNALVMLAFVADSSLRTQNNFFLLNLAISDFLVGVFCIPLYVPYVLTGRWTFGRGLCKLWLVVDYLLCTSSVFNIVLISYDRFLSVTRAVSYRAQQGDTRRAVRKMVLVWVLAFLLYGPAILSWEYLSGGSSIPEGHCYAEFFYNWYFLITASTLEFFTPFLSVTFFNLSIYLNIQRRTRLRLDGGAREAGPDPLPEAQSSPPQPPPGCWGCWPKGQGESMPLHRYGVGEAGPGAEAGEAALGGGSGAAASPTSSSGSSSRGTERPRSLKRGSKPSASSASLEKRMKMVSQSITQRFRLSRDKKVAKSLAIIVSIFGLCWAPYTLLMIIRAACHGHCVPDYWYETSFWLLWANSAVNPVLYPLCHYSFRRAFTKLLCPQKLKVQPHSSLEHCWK
Protocol text: H3 Receptor Binding Assay (displacement of [3H]R-α-methylhistamine or [3H]-N-methylhistamine)
Settings: guinea pig brain membranes; 3 nM [3H]R-α-methylhistamine or [3H]-N-methylhistamine; 30°, 30 min; duplicate, standard error less than 10%
pKi: −log10 of the molar value.
Assign class by pKi: not lower than 8 means Condition met; lower than 8 means Condition not met.

Determine whether this compound has pKi no lower than 8: O=C(CCN1CCC(Cc2c[nH]cn2)CC1)NCCc1ccc(Cl)cc1 [Compound 82]
Condition met

* * *

Quick record of Ki values for H3 receptor (Cavia porcellus, UniProt Q9JI35).
Kindly provide the numeric value in nM only, without the unit symbol.

Find Ki (H3 receptor (Cavia porcellus, UniProt Q9JI35)) for the entry O=C(Cc1ccc(Cl)c(Cl)c1)N1CCC(CCc2cnc[nH]2)CC1
57

H3 receptor (Cavia porcellus, UniProt Q9JI35) / Ki / O=C(CCN1CCC(CCc2cnc[nH]2)CC1)Nc1ccc(C(F)(F)F)cc1 : value?
50

# value lookup — system H3 receptor (Cavia porcellus, UniProt Q9JI35), readout Ki, item O=C(CCOc1ccccc1)N1CCC(Cc2cnc[nH]2)CC1
5

Record O=S(=O)(c1ccc(Cl)cc1)N1CCC(Cc2cnc[nH]2)CC1 : what is its Ki with H3 receptor (Cavia porcellus, UniProt Q9JI35)?
150
